Test system: rodent lifetime carcinogenesis bioassay, tumor incidence TD50
assay.comment: carcinogenic potency in animals, long-term in vivo studies, CPDB compilation (AID 1745844)
setup.conditions: mouse; strain B6C3F1; males; oral dosing; site: liver; lesion: several types; types named in the paper; dosed 70 weeks; study length 70 weeks
readout.type: TD50 (mg/kg/day)
Record the value in mg/kg/day, omitting the unit from your answer.

Exercise: Need TD50, item CCOC(N)=O
Key: 46

* * *

Test system: rodent lifetime carcinogenesis bioassay, tumor incidence TD50
assay.comment: carcinogenic potency in animals, long-term in vivo studies, CPDB compilation (AID 1745844)
setup.conditions: rat; strain Fischer 344; females; in feed; site: thyroid gland; lesion: c-cell adenoma + c-cell carcinoma; dosed 103 weeks; study length 105 weeks
Activity calls are given as the source filed them. The rule behind the calls is not given here.
readout.type: TD50

Exercise: Need TD50, item Nc1nc(N)nc(N)n1
Key: 2470 mg/kg/day (inactive)
